- System: E. coli 26
- Assay comment: MIC, two-fold plate dilution method
- Type: cell-based
- Assay setup: E. coli 26, Gram-negative; Muener-Hinton medium
Documented MIC across a set of compounds
State just the number; it will be interpreted in g/mL.

Example entries begin here.
[
  {
    "Compound string": "Cl.O=C(O)c1cn(C2CC2)c2c(OC(F)F)c(N3C[C@@H]4CCCN[C@@H]4C3)c(F)cc2c1=O",
    "Tested on": "E. coli 26",
    "Output unit": "g/mL",
    "MIC": 0.01
  },
  {
    "Compound string": "Cl.Nc1c(F)c(N2C[C@H]3CCCN[C@H]3C2)c(OC(F)F)c2c1c(=O)c(C(=O)O)cn2C1CC1",
    "Tested on": "E. coli 26",
    "Output unit": "g/mL",
    "MIC": 0.01
  }
]

// next entry
[Q] Let me know recorded MIC for "Cl.Nc1c(F)c(N2C[C@@H]3CCCN[C@@H]3C2)c(OC(F)F)c2c1c(=O)c(C(=O)O)cn2C1CC1" , thanks.
[A] 0.01
